B1: HHH_rd1_0493 (parent)
chain: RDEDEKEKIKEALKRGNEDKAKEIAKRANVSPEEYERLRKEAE

# Variants of: B1
# Method description: folding stability dG (cDNA display proteolysis); higher = more stable
# Stated conditions: PBS, room temperature
I'd appreciate it if you could supply folding stability dG values for the items below.
// units = kcal/mol; emit number, no label

Data point: "E5D" ; folding stability dG = 3

Data point: "N29E" ; folding stability dG = 2.29

Data point: "K40A" ; folding stability dG = 3.15

Data point: "K20S" ; folding stability dG = 2.6

Data point: "R27I" ; folding stability dG = 2.65

Data point: "I9V" ; folding stability dG = 2.09

Data point: "I9Q" ; folding stability dG = 0.476

Data point: "L13N" ; folding stability dG = 0.415

Data point: "N17A" ; folding stability dG = 2.65

Data point: "K22Q" ; folding stability dG = 2.86

Data point: "D19A" ; folding stability dG = 3.31

Data point: "P32I" ; folding stability dG = 2.77

Data point: "E33R" ; folding stability dG = 1.99

Data point: "N17P" ; folding stability dG = 1.03

Data point: "R1I" ; folding stability dG = 3.2

Data point: "D2T" ; folding stability dG = 3.03

Data point: "S31N" ; folding stability dG = 2.39

Data point: "K40D" ; folding stability dG = 2.63

Data point: "E23H" ; folding stability dG = 1.96

Data point: "A25N" ; folding stability dG = 0.52

Data point: "E33I" ; folding stability dG = 2.19

Data point: "A25T" ; folding stability dG = 1.01

Data point: "E18Q" ; folding stability dG = 2.54

Data point: "I9S" ; folding stability dG = 0.587

Data point: "E3F" ; folding stability dG = 2.93

Data point: "A42I" ; folding stability dG = 2.87

Data point: "A21K" ; folding stability dG = 0.184

Data point: "E36S" ; folding stability dG = 1.75

Data point: "R39A" ; folding stability dG = 2.37
